target: JAK3 (Homo sapiens); assay: experiment of inhibiting kinase activity (Caliper mobility shift assay), JAK3; assay type: biochemical; details: at 10 nM; read-out: inhibition rate JAK3
Sequence (P52333 whole entry): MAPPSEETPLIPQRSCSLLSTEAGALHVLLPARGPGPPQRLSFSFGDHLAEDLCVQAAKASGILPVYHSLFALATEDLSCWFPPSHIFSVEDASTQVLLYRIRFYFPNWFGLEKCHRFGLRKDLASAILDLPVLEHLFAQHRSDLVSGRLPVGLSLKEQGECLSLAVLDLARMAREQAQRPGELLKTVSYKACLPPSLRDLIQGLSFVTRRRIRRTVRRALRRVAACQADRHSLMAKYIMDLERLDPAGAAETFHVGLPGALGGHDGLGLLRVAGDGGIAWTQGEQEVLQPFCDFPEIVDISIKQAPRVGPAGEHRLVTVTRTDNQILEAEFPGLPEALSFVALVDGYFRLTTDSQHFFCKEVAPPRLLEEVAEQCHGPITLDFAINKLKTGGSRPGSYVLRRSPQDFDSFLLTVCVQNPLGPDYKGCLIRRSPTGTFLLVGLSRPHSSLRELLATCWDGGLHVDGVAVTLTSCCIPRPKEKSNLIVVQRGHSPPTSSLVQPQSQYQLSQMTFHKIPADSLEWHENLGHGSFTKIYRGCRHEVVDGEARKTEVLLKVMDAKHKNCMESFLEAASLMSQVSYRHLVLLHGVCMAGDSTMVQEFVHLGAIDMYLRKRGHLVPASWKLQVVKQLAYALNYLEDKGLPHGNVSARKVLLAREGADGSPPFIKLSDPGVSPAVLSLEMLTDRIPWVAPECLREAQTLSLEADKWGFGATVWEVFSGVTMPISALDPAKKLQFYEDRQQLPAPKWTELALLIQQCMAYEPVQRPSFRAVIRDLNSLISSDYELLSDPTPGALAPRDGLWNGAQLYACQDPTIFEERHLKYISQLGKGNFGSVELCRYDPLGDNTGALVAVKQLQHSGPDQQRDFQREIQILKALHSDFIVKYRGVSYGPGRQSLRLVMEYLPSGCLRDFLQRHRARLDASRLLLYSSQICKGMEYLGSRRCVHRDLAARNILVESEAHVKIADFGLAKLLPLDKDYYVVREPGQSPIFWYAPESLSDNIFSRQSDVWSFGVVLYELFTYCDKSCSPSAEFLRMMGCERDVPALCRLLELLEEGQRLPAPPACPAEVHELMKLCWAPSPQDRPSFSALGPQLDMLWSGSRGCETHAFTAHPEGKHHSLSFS
Catalogue of inhibition at 0.01 µM values

Take a look at these entries with their results.
cpd-smiles	reported-value
CCS(=O)(=O)N1CC(CC#N)(n2cc(-c3nc(Nc4ccc5c(c4)OCCN(C)CCO5)ncc3F)cn2)C1	40 to 79%
CN1CCOc2ccc(Nc3nc(-c4cnn([C@H](CC#N)C5CCCC5)c4)c4cc[nH]c4n3)cc2OCC1	40 to 79%
CN1CCOCCOc2cc(Nc3nc(-c4cnn([C@H](CC#N)C5CCCC5)c4)c4cc[nH]c4n3)ccc2OCC1	> 80%

Look up inhibition at 0.01 µM: CC(C)S(=O)(=O)c1ccccc1Nc1nc(Nc2ccc3c(c2)OCCN(C)CCO3)nc2[nH]ccc12
25 to 39%

# get_value(readout='inhibition at 0.01 µM', item= CC(=O)N1CCOCCOc2cc(Nc3nc(Nc4ccccc4S(=O)(=O)C(C)C)c4cc[nH]c4n3)ccc2OCC1 )
40 to 79%

I have this compound here, CN1CCOCCOc2ccc(Nc3nc(-c4ccc(C(=O)NCC#N)cc4)c4cc[nH]c4n3)cc2OCC1 , and I need its recorded inhibition at 0.01 µM.
40 to 79%

---

biological target: UniProt:P52333; assay: experiment of inhibiting kinase activity (Caliper mobility shift assay), JAK3; type: biochemical; conditions: at 100 nM; read-out: inhibition rate JAK3
assay-endpoint: inhibition at 0.1 µM

Worked set:
compound	measured-on	reported-value
CN1CCOc2ccc(Nc3nc(-c4ccc(C(=O)NCC#N)cc4)c4cc[nH]c4n3)cc2OCC1 [Example 2]	UniProt:P52333	> 80%
CN1CCOCCOc2cc(Nc3nc(Nc4cccc(S(=O)(=O)NC(C)(C)C)c4)c4cc[nH]c4n3)ccc2OCC1 [Example 20]	UniProt:P52333	40 to 79%
CC(C)S(=O)(=O)c1ccccc1Nc1nc(Nc2ccc3c(c2)OCCOCCNCCO3)nc2[nH]ccc12 [Example 97]	UniProt:P52333	> 80%
CN1CCOCCOc2cc(Nc3ncc(F)c(Nc4ccc5[nH]ccc5c4)n3)ccc2OCC1 [Example 30]	UniProt:P52333	> 80%
CN1CCOc2ccc(Nc3ncc(F)c(Nc4cccc(S(=O)(=O)NC(C)(C)C)c4)n3)cc2OCC1 [Example 1]	UniProt:P52333	25 to 39%
CN1CCOc2ccc(Nc3nc(-c4cnn(C(CC#N)C5CCCC5)c4)c4cc[nH]c4n3)cc2OCC1 (centres unmarked) [Example 27]	UniProt:P52333	> 80%

Request - read-out inhibition at 0.1 µM | tested on UniProt:P52333 | compound CN1CCOCCOc2ccc(Nc3ncc(F)c(Nc4cccc(S(=O)(=O)NC(C)(C)C)c4)n3)cc2OCC1 [Example 40]
25 to 39%

Enter reported inhibition at 0.1 µM observed with UniProt:P52333 for CN1CCOCCOc2cc(Nc3nc(-c4cn(C)c5ccccc45)c4cc[nH]c4n3)ccc2OCC1 [Example 23]
40 to 79%

Item Cc1nc2c(F)cc(-c3nc(Nc4ccc5c(c4)OCCOCCN(C)CCO5)nc4[nH]ccc34)cc2n1C(C)C [Example 31] with UniProt:P52333 - inhibition at 0.1 µM?
> 80%

inhibition at 0.1 µM of CC(C)S(=O)(=O)c1ccccc1Nc1nc(Nc2ccc3c(c2)OCCOCCN(C)CCO3)nc2[nH]ncc12 [Example 11] on UniProt:P52333?
> 80%

---

target: LRRK2 (Homo sapiens); test: experiment of inhibiting kinase activity, LRRK2; type: biochemical; details: at 100 nM; read-out: inhibition rate LRRK2
Sequence (Q5S007 whole entry): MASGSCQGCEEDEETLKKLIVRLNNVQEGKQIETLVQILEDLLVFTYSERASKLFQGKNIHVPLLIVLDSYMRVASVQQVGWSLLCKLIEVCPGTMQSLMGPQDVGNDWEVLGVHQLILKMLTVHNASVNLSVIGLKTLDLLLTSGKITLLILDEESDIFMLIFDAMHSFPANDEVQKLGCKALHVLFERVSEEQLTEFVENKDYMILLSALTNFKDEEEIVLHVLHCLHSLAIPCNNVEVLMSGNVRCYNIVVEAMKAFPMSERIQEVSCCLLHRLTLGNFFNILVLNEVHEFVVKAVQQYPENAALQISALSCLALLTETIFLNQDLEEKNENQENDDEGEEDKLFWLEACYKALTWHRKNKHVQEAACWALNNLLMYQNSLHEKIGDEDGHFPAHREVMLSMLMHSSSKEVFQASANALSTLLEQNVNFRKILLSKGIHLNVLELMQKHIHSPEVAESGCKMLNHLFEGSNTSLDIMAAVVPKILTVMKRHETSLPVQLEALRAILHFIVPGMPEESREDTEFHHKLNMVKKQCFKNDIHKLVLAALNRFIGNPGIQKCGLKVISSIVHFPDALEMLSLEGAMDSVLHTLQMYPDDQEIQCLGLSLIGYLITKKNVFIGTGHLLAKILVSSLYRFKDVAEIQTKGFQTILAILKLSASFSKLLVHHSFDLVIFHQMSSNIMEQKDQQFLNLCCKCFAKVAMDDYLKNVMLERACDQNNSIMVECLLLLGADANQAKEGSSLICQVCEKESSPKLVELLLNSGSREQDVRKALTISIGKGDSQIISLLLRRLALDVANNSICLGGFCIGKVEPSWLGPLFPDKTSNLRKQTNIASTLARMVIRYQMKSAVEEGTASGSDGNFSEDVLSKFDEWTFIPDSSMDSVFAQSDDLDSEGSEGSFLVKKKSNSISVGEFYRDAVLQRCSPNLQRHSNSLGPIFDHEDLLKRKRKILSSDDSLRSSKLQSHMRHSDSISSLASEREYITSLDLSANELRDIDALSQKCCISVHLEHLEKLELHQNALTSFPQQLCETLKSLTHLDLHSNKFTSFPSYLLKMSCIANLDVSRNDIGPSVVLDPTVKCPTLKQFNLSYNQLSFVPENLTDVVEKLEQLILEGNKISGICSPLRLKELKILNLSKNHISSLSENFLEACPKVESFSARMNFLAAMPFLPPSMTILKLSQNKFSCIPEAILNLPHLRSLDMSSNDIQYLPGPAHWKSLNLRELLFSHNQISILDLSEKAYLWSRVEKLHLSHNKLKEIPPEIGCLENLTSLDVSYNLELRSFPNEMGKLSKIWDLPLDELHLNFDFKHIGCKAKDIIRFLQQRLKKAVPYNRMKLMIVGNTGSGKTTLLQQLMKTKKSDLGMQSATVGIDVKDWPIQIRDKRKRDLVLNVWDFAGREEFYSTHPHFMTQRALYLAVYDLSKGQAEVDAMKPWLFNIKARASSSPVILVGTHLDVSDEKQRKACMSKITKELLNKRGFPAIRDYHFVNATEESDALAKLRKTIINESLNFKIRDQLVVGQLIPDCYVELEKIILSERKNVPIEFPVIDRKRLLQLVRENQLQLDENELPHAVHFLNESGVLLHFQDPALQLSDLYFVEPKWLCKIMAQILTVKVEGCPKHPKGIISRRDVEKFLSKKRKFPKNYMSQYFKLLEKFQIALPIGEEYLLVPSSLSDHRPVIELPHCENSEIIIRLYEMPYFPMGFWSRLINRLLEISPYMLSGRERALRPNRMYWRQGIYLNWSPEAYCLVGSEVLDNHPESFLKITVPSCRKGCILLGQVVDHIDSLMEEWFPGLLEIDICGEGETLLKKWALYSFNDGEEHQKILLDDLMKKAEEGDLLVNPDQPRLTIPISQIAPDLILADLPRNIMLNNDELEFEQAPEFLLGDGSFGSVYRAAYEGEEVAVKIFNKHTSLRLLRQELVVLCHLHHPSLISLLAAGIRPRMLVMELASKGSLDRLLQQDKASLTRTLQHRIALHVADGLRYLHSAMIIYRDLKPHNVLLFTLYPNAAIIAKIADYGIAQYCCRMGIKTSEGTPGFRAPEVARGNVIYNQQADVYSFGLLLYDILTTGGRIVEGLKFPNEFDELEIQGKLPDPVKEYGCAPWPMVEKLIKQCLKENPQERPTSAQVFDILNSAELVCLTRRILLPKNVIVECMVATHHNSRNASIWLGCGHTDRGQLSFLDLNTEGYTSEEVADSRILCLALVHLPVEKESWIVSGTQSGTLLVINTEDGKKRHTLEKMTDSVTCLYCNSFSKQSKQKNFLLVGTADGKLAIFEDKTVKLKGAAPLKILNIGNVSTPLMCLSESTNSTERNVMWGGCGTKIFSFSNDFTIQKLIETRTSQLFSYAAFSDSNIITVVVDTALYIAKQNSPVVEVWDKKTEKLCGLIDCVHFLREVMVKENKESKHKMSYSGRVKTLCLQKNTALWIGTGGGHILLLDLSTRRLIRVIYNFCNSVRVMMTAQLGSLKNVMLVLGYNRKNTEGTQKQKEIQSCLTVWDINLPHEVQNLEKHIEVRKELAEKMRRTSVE
Readings of inhibition at 0.1 µM for the listed molecules

As a guide, the following entries are already answered.
molecule	reported-value
CN1CCOc2ccc(Nc3ncc(F)c(-c4cn(C)c5ccccc45)n3)cc2OCC1	40 to 79%
CC(C)S(=O)(=O)c1ccccc1Nc1nc(Nc2ccc3c(c2)OCCN(C)CCOCCO3)nc2[nH]ncc12	> 80%

GET /values?readout=inhibition at 0.1 µM&system=LRRK2 (Homo sapiens)&item= CC(C)S(=O)(=O)c1ccccc1Nc1nc(Nc2ccc3c(c2)OCCOCCN(C)CCO3)nc2[nH]cnc12
> 80%

Form: Entry = Cc1nc2c(F)cc(-c3nc(Nc4ccc5c(c4)OCCOCCN(C)CCO5)nc4[nH]ccc34)cc2n1C(C)C | System = LRRK2 (Homo sapiens) | inhibition at 0.1 µM = ____
> 80%

# query: inhibition at 0.1 µM | item CN1CCOCCOc2cc(Nc3nc(-c4cnn(C(CC#N)C5CCCC5)c4)c4cc[nH]c4n3)ccc2OCC1 (stereo not shown) | system: LRRK2 (Homo sapiens)
> 80%

I'm curious: which inhibition at 0.1 µM was measured for CN1CCOc2ccc(Nc3nc(-c4ccc(C(=O)NCC#N)cc4)c4cc[nH]c4n3)cc2OCC1 tested on LRRK2 (Homo sapiens)?
> 80%

For LRRK2 (Homo sapiens), provide inhibition at 0.1 µM of CC(C)S(=O)(=O)c1ccccc1Nc1nc(Nc2ccc3c(c2)OCCOCCN(C)CCO3)nc2[nH]ncc12 please.
40 to 79%

Provide value of inhibition at 0.1 µM for this record tested with LRRK2 (Homo sapiens): CN1CCOCCOc2cc(Nc3nc(Nc4cccc(S(N)(=O)=O)c4)c4cc[nH]c4n3)ccc2OCC1
> 80%

inhibition at 0.1 µM of CN1CCOCCOc2cc(Nc3nc(-c4cn(C)c5ccccc45)c4cn[nH]c4n3)ccc2OCC1 on LRRK2 (Homo sapiens)?
25 to 39%

Fill in the recorded inhibition at 0.1 µM for this molecule, with LRRK2 (Homo sapiens) as test system: CC(C)S(=O)(=O)c1ccccc1Nc1nc(Nc2ccc3c(c2)OCCOCCN(C)CCO3)nc2[nH]ccc12
> 80%

---

biological target: JAK2 (Homo sapiens); assay: experiment of inhibiting kinase activity (Caliper mobility shift assay), JAK2; type: biochemical; conditions: at 100 nM; read-out: inhibition rate JAK2
Sequence (O60674 whole entry): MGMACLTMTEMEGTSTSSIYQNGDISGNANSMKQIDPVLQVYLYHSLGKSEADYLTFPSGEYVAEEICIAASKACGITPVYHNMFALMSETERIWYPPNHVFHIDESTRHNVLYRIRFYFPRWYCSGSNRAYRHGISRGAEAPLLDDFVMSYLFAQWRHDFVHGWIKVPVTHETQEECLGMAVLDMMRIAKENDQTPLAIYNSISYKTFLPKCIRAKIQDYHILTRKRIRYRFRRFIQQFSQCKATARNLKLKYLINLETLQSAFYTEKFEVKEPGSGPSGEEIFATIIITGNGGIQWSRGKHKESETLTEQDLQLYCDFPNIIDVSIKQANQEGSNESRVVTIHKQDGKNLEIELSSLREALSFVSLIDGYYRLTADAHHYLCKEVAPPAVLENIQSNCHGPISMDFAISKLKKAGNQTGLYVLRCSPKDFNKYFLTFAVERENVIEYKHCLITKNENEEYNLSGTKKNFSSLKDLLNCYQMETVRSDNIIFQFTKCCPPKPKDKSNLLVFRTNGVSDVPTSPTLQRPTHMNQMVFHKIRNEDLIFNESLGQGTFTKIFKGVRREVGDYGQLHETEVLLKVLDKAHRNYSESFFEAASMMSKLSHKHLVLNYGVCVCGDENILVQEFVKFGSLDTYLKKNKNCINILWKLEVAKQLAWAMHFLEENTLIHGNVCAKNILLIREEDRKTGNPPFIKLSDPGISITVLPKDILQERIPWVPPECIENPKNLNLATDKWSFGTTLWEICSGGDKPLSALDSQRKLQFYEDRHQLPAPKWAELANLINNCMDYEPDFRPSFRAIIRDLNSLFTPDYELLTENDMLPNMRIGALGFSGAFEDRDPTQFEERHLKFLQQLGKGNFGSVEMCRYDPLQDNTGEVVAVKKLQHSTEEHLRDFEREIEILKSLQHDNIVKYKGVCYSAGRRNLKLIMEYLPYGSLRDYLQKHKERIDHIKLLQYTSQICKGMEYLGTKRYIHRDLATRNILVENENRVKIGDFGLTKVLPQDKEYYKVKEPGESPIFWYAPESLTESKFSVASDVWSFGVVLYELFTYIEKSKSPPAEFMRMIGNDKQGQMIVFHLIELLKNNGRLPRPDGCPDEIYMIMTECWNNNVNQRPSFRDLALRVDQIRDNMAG
The following compounds are shown together with reported inhibition at 0.1 µM values.

Below: 5 compounds and their reported inhibition at 0.1 µM.
compound	reported-value
Cc1nc2c(F)cc(-c3nc(Nc4ccc5c(c4)OCCOCCN(C)CCO5)nc4[nH]ccc34)cc2n1C(C)C	> 80%
CNc1nc(Nc2ccc3c(c2)OCCN(C)CCO3)nc2[nH]ccc12	25 to 39%
CC(C)S(=O)(=O)c1ccccc1Nc1nc(Nc2ccc3c(c2)OCCN(C)CCO3)nc2[nH]ccc12	> 80%
CN1CCOc2ccc(Nc3nc(-c4cnn(C(CC#N)C5CCCC5)c4)c4cc[nH]c4n3)cc2OCC1 (stereo not drawn)	> 80%
CN1CCOc2ccc(Nc3ncc(F)c(-c4cn(C)c5ccccc45)n3)cc2OCC1	40 to 79%

Which inhibition at 0.1 µM is reported for this compound? CN1CCOc2ccc(Nc3nc(-c4ccc(C(=O)NCC#N)cc4)c4cn[nH]c4n3)cc2OCC1
> 80%

What value of inhibition at 0.1 µM has been recorded for this entry: CN1CCOCCOc2cc(Nc3nc(-c4cn(C)c5ccccc45)c4cn[nH]c4n3)ccc2OCC1
40 to 79%

Value lookup for inhibition at 0.1 µM; key = CC(C)S(=O)(=O)c1ccccc1Nc1nc(Nc2ccc3c(c2)OCCOCCN(S(C)(=O)=O)CCO3)nc2[nH]ccc12
> 80%

Could you share which inhibition at 0.1 µM value was measured for CN1CCOc2ccc(Nc3ncc(F)c(Nc4cccc(S(=O)(=O)NC(C)(C)C)c4)n3)cc2OCC1 ?
> 80%

Can you share its inhibition at 0.1 µM? I mean this compound: CN1CCOCCOc2ccc(Nc3nc(Nc4cccc(S(=O)(=O)NC(C)(C)C)c4)c4cc[nH]c4n3)cc2OCC1
> 80%

Any idea what inhibition at 0.1 µM was measured for CN1CCOCCOc2cc(Nc3ncc(F)c(Nc4cccc(S(=O)(=O)NC(C)(C)C)c4)n3)ccc2OCC1 ?
> 80%

Param item = CN1CCOCCOc2cc(Nc3nc(-c4cn(C)c5ccccc45)c4cc[nH]c4n3)ccc2OCC1 ; retrieve measured inhibition at 0.1 µM.
> 80%

What does the record list as inhibition at 0.1 µM for CN1CCOCCOc2cc(Nc3ncc(F)c(Nc4ccc5[nH]ccc5c4)n3)ccc2OCC1 ?
> 80%

What measured inhibition at 0.1 µM goes with CCS(=O)(=O)N1CC(CC#N)(n2cc(-c3nc(Nc4ccc5c(c4)OCCN(C)CCO5)nc4[nH]ccc34)cn2)C1 ?
> 80%

// inhibition at 0.1 µM lookup, key: CN1CCOCCOc2cc(Nc3nc(Nc4cccc(S(N)(=O)=O)c4)c4cc[nH]c4n3)ccc2OCC1
40 to 79%

If you can, please state the reported inhibition at 0.1 µM value of CC(C)S(=O)(=O)c1ccccc1Nc1nc(Nc2ccc3c(c2)OCCOCCN(C)CCO3)nc2[nH]cnc12 .
> 80%

Requested field: inhibition at 0.1 µM. Item: CN1CCOCCOc2cc(Nc3nc(Nc4ccccc4P(C)(C)=O)c4cn[nH]c4n3)ccc2OCC1
40 to 79%

Look up inhibition at 0.1 µM for this compound: CCS(=O)(=O)N1CC(CC#N)(n2cc(-c3nc(Nc4ccc5c(c4)OCCN(C)CCO5)nc4[nH]ncc34)cn2)C1
> 80%

Look up inhibition at 0.1 µM for this compound: CN1CCOCCOc2cc(Nc3ncc(F)c(-c4ccc(C(=O)NCC#N)cc4)n3)ccc2OCC1
> 80%

I would be grateful if you could share the reported inhibition at 0.1 µM for CN1CCOCCOc2cc(Nc3nc(Nc4cccc(S(=O)(=O)NC(C)(C)C)c4)c4cc[nH]c4n3)ccc2OCC1 .
> 80%

// returns reported inhibition at 0.1 µM for input CC(C)S(=O)(=O)c1ccccc1Nc1nc(Nc2ccc3c(c2)OCCN(C)CCOCCO3)nc2[nH]ncc12
40 to 79%
